Cited source for all entries: the RNAGym collection of RNA variant scans (doi:10.7554/elife.80360)

B1: HDV Ribozyme (parent)
chain: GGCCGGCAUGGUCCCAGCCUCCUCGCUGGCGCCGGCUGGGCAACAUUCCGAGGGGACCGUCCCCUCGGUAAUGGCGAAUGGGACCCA

variants of: B1; assay: self-cleavage, relative activity (ratio to wild type); higher = more cleavage; co-transcriptional
// values below are reported self-cleavage
assay.readout: self-cleavage

In [3]: df
Out[3]:
                      macromolecule_sequence  assay_readout  measured_number
 0  GGCCGGCAUGGUCCCAGCCACCUCGCUGGCGCCGGCUGGGCAACAUUCCGAGGGGACCGUCCACUCGGUAAUGGCGAAUGGGACCCA [U20A C63A]  self-cleavage           0.0504
 1  GGCCGGCAUGGUCCCAGCCUCAUCGCUGGGGCCGGCUGGGCAACAUUCCGAGGGGACCGUCCCCUCGGUAAUGGCGAAUGGGACCCA [C22A C30G]  self-cleavage            0.154
 2  GGCCGGCAUGGUGCCAGCCUCCUCGCUGGCGCCGGCUGGGCAACAUUCCGAGGGGACCGUCCCCUCGGUAAUGGCGCAUGGGACCCA [C13G A77C]  self-cleavage           0.0615
 3  GGCCGGCAUGGUCCCAGCCUCCUCGUUGGCGCCGGCUGGGCAACAUUCCGAGGGGACCGUCCCCUCGGUACUGGCGAAUGGGACCCA [C26U A71C]  self-cleavage            0.748
 4  GGCCGGCAUGGUCCCAGCCUCCUCGCUCGCGCCGGCUGGGCAACAUUCCGAGGGGACCGUCCCCUCGGUAAUGGCGAAUGCGACCCA [G28C G81C]  self-cleavage           0.0875
 5  GGCCGGCAUGGUCCCAGCCUCCUCUCUGGCGCCGGCUGGGAAACAUUCCGAGGGGACCGUCCCCUCGGUAAUGGCGAAUGGGACCCA [G25U C41A]  self-cleavage            0.125
 6  GGCCGGCAUGGUCCCAGCCUCCUCGCUGGCGCCGGCUGGGCAACAUUCCGUGGGGACCGUCCCCUCGGUAAUGGCGAAUUGGACCCA [A51U G80U]  self-cleavage            0.257
 7  GGCCGGCAUGGUCCCAGCCUCCUCGCUGGCUCCGGCUGGGCAACAUUCCGAGGGGACCGUCCCCUCGGUAAUGGCGAAUGGGACCCC [G31U A87C]  self-cleavage            0.358
 8  GGCCGGCAUGGUGCCAGCCUCCUCGCUGGCGCCGGCUGGGCAACAUUCCGAGGGGACCGUCCCCUCGGUAAUGUCGAAUGGGACCCA [C13G G74U]  self-cleavage           0.0386
 9  GGCCGGCAUGGUCCCAGCCUCCUCGCUGGCGCCGGGUCGGCAACAUUCCGAGGGGACCGUCCCCUCGGUAAUGGCGAAUGGGACCCA [C36G G38C]  self-cleavage            0.208
10  GGCGGGCAUGGUCUCAGCCUCCUCGCUGGCGCCGGCUGGGCAACAUUCCGAGGGGACCGUCCCCUCGGUAAUGGCGAAUGGGACCCA [C4G C14U]  self-cleavage            0.462
11  GGCCGGCAUGGUCCCAGCCUCCUCGCUGGCGCCGGCUGGGCUACAUUCCCAGGGGACCGUCCCCUCGGUAAUGGCGAAUGGGACCCA [A42U G50C]  self-cleavage            0.285
12  GGCCGGCAUGGUCCCAGCCUCCUUGCUGGCCCCGGCUGGGCAACAUUCCGAGGGGACCGUCCCCUCGGUAAUGGCGAAUGGGACCCA [C24U G31C]  self-cleavage           0.0615
13  GGCCGGCAUGGUCCCAGCGUCCUCGCUGGCGCCGGCUGGGCAACAUUCCGAGGGGACCGUCCCCUCGGUAAUGGCGAAAGGGACCCA [C19G U79A]  self-cleavage                0
14  GGCCGGCAUGGUCCCAGCCUCCUCGCAGGCGCCGGCUGGGCAACAUUCCGAGGGGACCGUCCCCUCGGUAGUGGCGAAUGGGACCCA [U27A A71G]  self-cleavage             1.07
15  GGCCGGCAUGGUCCCAGCCUCCUCGCUGGUGCCGGCUGGGCAACAUUCCGAGGGGACCGUCCCCACGGUAAUGGCGAAUGGGACCCA [C30U U65A]  self-cleavage            0.689
16  GGCCGGCAUGGUCCCAGCCUCCUCGCGGGCGCCGGCUGGGCAACAUUCCGAGGGGACCGUCCCCCCGGUAAUGGCGAAUGGGACCCA [U27G U65C]  self-cleavage            0.965
17  GGCCGGCAUGGUCCCAGCCUCCUCGCUGGCGCCGGGUGGGCAACAUUCCGAGGGGACCGUCCCCUCGGUAAUGGCGGAUGGGACCCA [C36G A77G]  self-cleavage           0.0791
18  GGCCGGCAUGGUCCCCCCCUCCUCGCUGGCGCCGGCUGGGCAACAUUCCGAGGGGACCGUCCCCUCGGUAAUGGCGAAUGGGACCCA [A16C G17C]  self-cleavage            0.266
19  GGCCGGCAUGGUCCCAGCCUCCUCGCUGGCGCCGGCUGGGCAACAUUCCGAGGGGACCGUCCCCUCGGUAUUGGCGAACGGGACCCA [A71U U79C]  self-cleavage            0.314
20  GGCCGGCAUGGUCCCACCCUCCUCGCUGGCGCCGGCUGGGCAACAUUCCGAGGGGACCGUCCCCUCGGUAAUGGCGAAUGGGACGCA [G17C C85G]  self-cleavage            0.185
21  GGCCGGCAUGGUCCCAGCCUCCUCGCUGGGGCCGGCUGGGCAACAUUCCGAGGGGACCGUCCCCUCGGUAAUGGCGAAUGGGACACA [C30G C85A]  self-cleavage           0.0308
22  GGCCGGCAUGGUCCCAGCCUCCUCGCUGGCGCCGGAUGGGCAACAUUCCGAGGGGACCGUCCCCUCGGUAAUAGCGAAUGGGACCCA [C36A G73A]  self-cleavage            0.104
23  GGCCGGCAUGGGCCCAGCCUCCUCGCUGGCGCCGGCUGGGCAAGAUUCCGAGGGGACCGUCCCCUCGGUAAUGGCGAAUGGGACCCA [U12G C44G]  self-cleavage            0.475
24  GGCCGGCAUGGUGCCAGCCUCCUCGCUGGCGCCGGCUGGGCAACAUUCCGAGGGGACCGUCCCCUCGGUAACGGCGAAUGGGACCCA [C13G U72C]  self-cleavage           0.0723
25  GGCCGGCAUGGUCCCAGCCUCCGCGCUGGCGCCGGCUGGGCAACAUUCCGAGGGGACCCUCCCCUCGGUAAUGGCGAAUGGGACCCA [U23G G59C]  self-cleavage              0.9
26  GGCCGGCAUGGUCCCAGCCUCCUCGCUGGCCCCGGCUGGGCAACAUUCCGAGGGGACCGUCCCCGCGGUAAUGGCGAAUGGGACCCA [G31C U65G]  self-cleavage             0.48
27  GGCCGGCAUGGCCCCAGCCUCCUCGCCGGCGCCGGCUGGGCAACAUUCCGAGGGGACCGUCCCCUCGGUAAUGGCGAAUGGGACCCA [U12C U27C]  self-cleavage            0.222
28  GGCCGGCAUGGUCCCGGCCUCCUCGCUGGCGCCGGCUGGGCAACAUUCCGAGGGGACCGUCCCCUCGGUUAUGGCGAAUGGGACCCA [A16G A70U]  self-cleavage            0.499
29  GGCCAGAAUGGUCCCAGCCUCCUCGCUGGCGCCGGCUGGGCAACAUUCCGAGGGGACCGUCCCCUCGGUAAUGGCGAAUGGGACCCA [G5A C7A]  self-cleavage                0
30  GGCCGGCAUGGUCCCAGCCUCCUCGCUGGCGCCGUCUGGGCAACAUACCGAGGGGACCGUCCCCUCGGUAAUGGCGAAUGGGACCCA [G35U U47A]  self-cleavage            0.332
31  GGCCGGCAUGGUCCCAGCCUCCUCGCCGGCGCCGGCUGGGCAAGAUUCCGAGGGGACCGUCCCCUCGGUAAUGGCGAAUGGGACCCA [U27C C44G]  self-cleavage            0.277
32  GGCCGGCAUGGUCCCAGCCUCCUCGCUGGCGCCGGCUGGGCAACAUUCCGGGGGGACCGUCCCCUCGGUAAUGGCUAAUGGGACCCA [A51G G76U]  self-cleavage            0.942
33  GGCCGGCAUGGUCCCAGCCUCCUCGCUGUCGCCGGCUGGGCAACAUUCCGAGGGGACCGUCCCCUCGGUAAUGCCGAAUGGGACCCA [G29U G74C]  self-cleavage            0.137
34  GGCCGGCAUGGUCCCAGCCUCCUCGCUGGCGCCGGCUGGGCAGCAUUCCGAGGGGACCGUCCCGUCGGUAAUGGCGAAUGGGACCCA [A43G C64G]  self-cleavage            0.644
35  GGCCGGCAUGGUCCCAGCCUCCUCGCAGGCGCCGGCUGGGAAACAUUCCGAGGGGACCGUCCCCUCGGUAAUGGCGAAUGGGACCCA [U27A C41A]  self-cleavage            0.895
36  GGCCGGCAUGGUCCCAGCUUCCUCGCUGGCGCCGGCUGGGCAACAUUCCGAGGGGACCGUCCCCUCGUUAAUGGCGAAUGGGACCCA [C19U G68U]  self-cleavage            0.168
37  GGCCGGCAUGUUCCCAGCCUCCUCGCUGGCGCCGGCUGGGCAACAUUCCGAGGGGACCGUCCCCUCGGCAAUGGCGAAUGGGACCCA [G11U U69C]  self-cleavage            0.161
38  GUCCGGCAUGGUCCCAGCCUCCUCGCUGGCGCCGGCUGGGCAUCAUUCCGAGGGGACCGUCCCCUCGGUAAUGGCGAAUGGGACCCA [G2U A43U]  self-cleavage           0.0866
39  GGCCGGCAUGGUCCCAGCCUCCUCGCUGGCGCCGGCUGGGCGACAUUCCGAGGGGACCGUCCCCUCGGUAAUGGCGAAUGGUACCCA [A42G G82U]  self-cleavage           0.0504
40  GGCCGGCAUGGUCCCAGCCUCCUCACUGGCGCCGGCUGGGCAACAUUCCGAGGGGACCGUCCCCUCGAUAAUGGCGAAUGGGACCCA [G25A G68A]  self-cleavage            0.179
41  GGCCGGCAUGGUCCCAGCCUCCUCGCUGGCGCCGGCUGGGCAACAUUCCGCGGGGACCGUCCCCUCGGUAAUGGCGAAGGGGACCCA [A51C U79G]  self-cleavage            0.415
42  GGCCGGCAUGGUCCCAGCCUCCUCGCUGGCGCCGGCUGGGCAACAUUCCGAGGGGACCGUCCCCUGGGUAAAGGCGAAUGGGACCCA [C66G U72A]  self-cleavage            0.587
